Each entry below lists one item and its recorded Emax value.
Biological target: human FXR (NR1H4) (Homo sapiens, UniProt Q96RI1)
Sequence (Q96RI1 1-486): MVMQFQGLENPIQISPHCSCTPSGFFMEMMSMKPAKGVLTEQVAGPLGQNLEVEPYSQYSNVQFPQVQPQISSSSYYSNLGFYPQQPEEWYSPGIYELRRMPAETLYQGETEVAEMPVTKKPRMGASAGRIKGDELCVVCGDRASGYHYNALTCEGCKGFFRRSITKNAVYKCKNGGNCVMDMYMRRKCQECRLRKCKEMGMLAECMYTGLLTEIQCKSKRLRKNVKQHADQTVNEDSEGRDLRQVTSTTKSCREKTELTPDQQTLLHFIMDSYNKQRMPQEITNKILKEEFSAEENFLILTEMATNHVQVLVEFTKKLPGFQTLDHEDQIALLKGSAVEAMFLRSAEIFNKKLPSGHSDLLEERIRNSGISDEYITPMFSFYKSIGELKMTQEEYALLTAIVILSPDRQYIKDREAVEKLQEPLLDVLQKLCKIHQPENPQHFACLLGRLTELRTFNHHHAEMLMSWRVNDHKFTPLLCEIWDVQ
Assay: Human FXR (NR1H4) Assay: Gal4 promoter driven luciferase reporter transactivation in CHO cells (Indigo Bioscience kit IB00601)
Assay type: cell-based
Conditions: CHO, efficacy normalized to CDCA set as 100%; read-out: Efficacy (%)
Please respond with the number in % and leave the unit unwritten.

Reference set (5 entries):
- MOLECULE: "O=C(Nc1cccc(C2CCCCC2)c1)N1C2CCC1CC(OCc1c(-c3c(Cl)cccc3Cl)noc1C1CC1)C2 (centres unmarked)"
  ASSAY TARGET: "human FXR (NR1H4) (Homo sapiens, UniProt Q96RI1)"
  UNIT TEXT: "%"
  REPORTED MEASUREMENT: 144
- MOLECULE: "O=C(NS(=O)(=O)C1CC1)c1ccc(NC(=O)N2C3CCC2CC(OCc2c(-c4ccccc4OC(F)(F)F)noc2C2CC2)C3)cc1 (centres unmarked)"
  ASSAY TARGET: "human FXR (NR1H4) (Homo sapiens, UniProt Q96RI1)"
  UNIT TEXT: "%"
  REPORTED MEASUREMENT: 220
- MOLECULE: "COC(=O)c1ccc(NC(=O)N2C3CCC2CC(OCc2c(-c4c(Cl)cccc4Cl)noc2C2CC2)C3)c(OC(F)(F)F)c1 (centres unmarked)"
  ASSAY TARGET: "human FXR (NR1H4) (Homo sapiens, UniProt Q96RI1)"
  UNIT TEXT: "%"
  REPORTED MEASUREMENT: 43
- MOLECULE: "CN(C)S(=O)(=O)NC(=O)c1ccc(NC(=O)N2C3CCC2CC(OCc2c(-c4c(Cl)cccc4Cl)noc2C2CC2)C3)cc1 (centres unmarked)"
  ASSAY TARGET: "human FXR (NR1H4) (Homo sapiens, UniProt Q96RI1)"
  UNIT TEXT: "%"
  REPORTED MEASUREMENT: 140
- MOLECULE: "CC(C)(C)c1ccc(NC(=O)N2C3CCC2CC(OCc2c(-c4c(Cl)cccc4Cl)noc2C2CC2)C3)cc1 (centres unmarked)"
  ASSAY TARGET: "human FXR (NR1H4) (Homo sapiens, UniProt Q96RI1)"
  UNIT TEXT: "%"
  REPORTED MEASUREMENT: 174

Entry CN(C)S(=O)(=O)NC(=O)c1ccc(NC(=O)N2C3CCC2CC(OCc2c(-c4ccccc4OC(F)(F)F)noc2C2CC2)C3)cc1 (centres unmarked) : reported Emax = ?
217

Name the reported Emax value associated with the molecule O=C(O)c1ccc(NC(=O)N2C3CCC2CC(OCc2c(-c4c(Cl)cccc4Cl)noc2C2CC2)C3)c(C2CC2)c1 (centres unmarked)
70

Fill in: Emax of O=C(O)c1ccc(F)c(NC(=O)N2C3CCC2CC(OCc2c(-c4c(Cl)cccc4Cl)noc2C2CC2)C3)c1 (centres unmarked) is ___
140
